Exercise: state measured pKi for each of the compounds provided.
Target: Savinase (Lederbergia lenta, UniProt P29600)
Construct: Novozymes A/S
Sequence (P29600 whole entry): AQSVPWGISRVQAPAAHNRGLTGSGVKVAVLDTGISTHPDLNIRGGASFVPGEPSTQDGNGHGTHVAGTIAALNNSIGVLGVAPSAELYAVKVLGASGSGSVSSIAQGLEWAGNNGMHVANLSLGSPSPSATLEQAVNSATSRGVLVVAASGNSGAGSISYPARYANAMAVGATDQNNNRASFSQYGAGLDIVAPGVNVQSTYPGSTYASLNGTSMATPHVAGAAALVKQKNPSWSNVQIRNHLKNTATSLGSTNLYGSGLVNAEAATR
Test: biochemical
One number for each entry, as −log10 of the molar value.

>>> endpoint_value("Nc1ccccc1C(=O)O")
1.80
>>> endpoint_value("O=Cc1ccc(O)c(O)c1 [3,4-dihydrozybenzaldehyde]")
1.96
>>> endpoint_value("O=C(O)c1ccccc1")
1.66
>>> endpoint_value("O=C(O)Cc1ccccc1")
2.00
>>> endpoint_value("O=C(O)Cc1cccc(Cl)c1")
2.15

Record pKi for all entries; do not skip any.
1. O=C(O)Cc1ccccc1Cl
2. O=C(O)c1cccc(Cl)c1

[1.96, 2.40]
